Tested on: T-47D spheroids with HUVEC/MSC, viability
Experiment: Anticancer human tumor T-47D cell line growth inhibition [PI3K];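 note: spheroids exposed to agents for seven days before reading; percent of DMSO vehicle control luminescence so 100% = untreated growth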
Details: second compound 0.316 µM; first compound 0.1 µM; hits give low values
measurement-name: viability, T/C (%)
Quick reminder: number only, in %, skip the unit.

Sample answers from the record:
{"columns": ["compound", "unit", "measured-result"],
 "data": [
  ["CC(C)NCC(C(=O)N1CCN(c2ncnc3c2C(C)CC3O)CC1)c1ccc(Cl)cc1 (stereo not drawn) + CC(Nc1ncnc2nc[nH]c12)c1cc2cccc(Cl)c2c(=O)n1-c1ccccc1", "%", 78.6],
  ["Cn1ncnc1[C@H]1c2n[nH]c(=O)c3cc(F)cc(c23)N[C@@H]1c1ccc(F)cc1 + CC(Nc1ccc2c(c1)OCCn1cc(N3C(=O)OCC3C(F)F)nc1-2)C(N)=O", "%", 61.9]
]}

Continue with the next compound.
# returns recorded viability, T/C (system: T-47D spheroids with HUVEC/MSC, viability) for CC1(C)CCC(Nc2ncc(C(F)(F)F)c(-c3c[nH]c4c(P(C)(C)=O)c(C#N)ccc34)n2)CN1 (stereo not drawn) + CC(Nc1ccc2c(c1)OCCn1cc(N3C(=O)OCC3C(F)F)nc1-2)C(N)=O 42.6
